This collection of values is drawn from the supplement of paper PMC6555819.

# Test system: PPARg:RXRa IVT, anti-PPARg (NR concentration 270 nM, RXRa partner concentration 90 nM)
# EXPERIMENT NOTES: PBM binding z-score (relative to random genomic background probes); higher = stronger binding; sequences stand for … in GC…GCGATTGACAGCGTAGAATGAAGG
The reader will find reported PBM binding z-score values listed item by item below.
Answer as a number with no unit attached.

Recorded results for 4 sequences are shown here.
| ENTRY SEQUENCE | PBM binding z-score |
| --- | --- |
| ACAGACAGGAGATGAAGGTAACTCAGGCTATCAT | -0.0699 |
| TCTTGTAGATCAAGCAGGTTAAGGAAGCCTGAGT | 0.345 |
| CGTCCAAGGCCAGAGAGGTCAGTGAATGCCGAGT | 0.381 |
| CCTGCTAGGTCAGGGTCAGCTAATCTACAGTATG | 3.55 |

Alright, here's another sequence for you.
[Q] Answer with the recorded PBM binding z-score for the sequence listed here: "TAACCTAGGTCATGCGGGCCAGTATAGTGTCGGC"
[A] 4.46
